EXPERIMENT_SUMMARY: log P from HPLC-MS, no method note printed
Assay type: physicochemical
CONDITION_DESCRIPTION: method not given
PROPERTY_MEASURED: chromatographic logP

Cn1nc(OC(F)F)c(Br)c1C(=O)O    1.52
Cn1nc(-c2ccc(C(F)(F)F)cc2)c(C(F)(F)F)c1C(=O)O    1.24

a: CCOC(=O)c1c(I)c(C2CC2)nn1C
b: O=C(O)c1cnc(C(F)(F)C(F)(F)F)nc1C(F)(F)C(F)(F)F
Query string: Which has the higher chromatographic logP, a or b ? # respond with the chosen item's label
Result string: a

1: COC(=O)c1c(C(F)(F)F)c(-c2ccc(C(F)(F)F)cc2)nn1C
2: Cn1nc(OC(F)F)c(I)c1C(=O)O
Query string: Which has the higher chromatographic logP, 1 or 2 ? # respond with the chosen item's label
Result string: 1

###

EXPERIMENT_SUMMARY: logP by HPLC on a C18 phase inversion column, EEC Directive 79/831 Annex V.A8, method a) (Agilent 1100, 10-95% acetonitrile in 4.25 min)
Format: physicochemical
CONDITION_DESCRIPTION: HPLC phase inversion (reversed-phase) C18 column, HPLC on C18 phase inversion column, method a); read-out: logP
PROPERTY_MEASURED: chromatographic logP

Cn1nc(C(F)(F)C(F)(F)F)c(C(F)(F)F)c1C(=O)Nc1cnc(Cl)c(C(=O)O)c1    2.77
Cn1nc(OC(F)F)c(C(F)(F)F)c1C(=O)Nc1ccc(Cl)c(C(=O)NCC(F)(F)F)c1    3.01
Cn1nc(C(F)(F)C(F)(F)F)c(C(F)(F)F)c1C(=O)Nc1cc(C(=O)O)c(Cl)cn1    2.82
Cn1nc(C(F)(F)F)c(C(F)(F)F)c1C(=O)Nc1ccc(Cl)c(C(=O)NCC(F)(F)F)c1    3.25

###

logP overview
EXPERIMENT_SUMMARY: logP by HPLC on a C18 phase inversion column, EEC Directive 79/831 Annex V.A8, method b) (HP1100, 5-95% acetonitrile in 1.70 min)
Assay type: physicochemical
CONDITION_DESCRIPTION: HPLC method b)

Here is how some compounds turned out for logP.
CC(NC(=O)c1cc(NC(=O)c2c(C(F)(F)F)c(C(F)(F)C(F)(F)F)nn2C)ccc1Cl)c1cccc(F)c1 (stereo not drawn)    3.89^b)
Cn1nc(C(F)(F)C(F)(F)F)c(C(F)(F)F)c1C(=O)Nc1ccc(Cl)c(C(=O)NCCc2ccc(Cl)cc2)c1    4.23^b)
C[C@H]1C[C@H]1NC(=O)c1cc(NC(=O)c2c(C(F)(F)F)c(C(F)(F)C(F)(F)F)nn2C)ccc1Cl    3.37^b)
Cn1nc(C(F)(F)C(F)(F)F)c(C(F)(F)F)c1C(=O)Nc1ccc(Cl)c(C(=O)NC2COC2)c1    2.76^b)
CSCC(C)(C)NC(=O)c1cc(NC(=O)c2c(C(F)(F)F)c(C(F)(F)C(F)(F)F)nn2C)ccc1Cl    4.05^b)

Query string: Which logP value belongs to `Cn1nc(C(F)(F)C(F)(F)F)c(C(F)(F)F)c1C(=O)Nc1ccc(Cl)c(C(=O)NCc2nc(C(F)(F)F)cs2)c1` ?
Result string: 3.75^b)

Query string: Try this compound too: Cn1nc(C(F)(F)C(F)(F)F)c(C(F)(F)F)c1C(=O)Nc1ccc(Cl)c(C(=O)NC2C=CS(=O)(=O)C2)c1 (stereo not drawn)
Result string: 2.80^b)

Query string: Try this compound too: `C[C@H](NC(=O)c1cc(NC(=O)c2c(C(F)(F)F)c(C(F)(F)C(F)(F)F)nn2C)ccc1Cl)C(F)(F)F`
Result string: 3.63^b)

Query string: Try this compound too: `Cn1nc(C(F)(F)C(F)(F)F)c(C(F)(F)F)c1C(=O)Nc1ccc(Cl)c(C(=O)NCc2c(F)cccc2F)c1`
Result string: 3.73^b)

Query string: Try this compound too: `Cn1nc(C(F)(F)C(F)(F)F)c(C(F)(F)F)c1C(=O)Nc1ccc(Cl)c(C(=O)NC2CCCC2)c1`
Result string: 3.78^b)

Query string: Try this compound too: `CCCNC(=O)c1cc(NC(=O)c2c(C(F)(F)F)c(C(F)(F)C(F)(F)F)nn2C)ccc1Cl`
Result string: 3.23^b)

Query string: Try this compound too: Cn1nc(C(F)(F)C(F)(F)F)c(C(F)(F)F)c1C(=O)Nc1ccc(Cl)c(C(=O)NC2CC2c2ccccc2)c1 (stereo not drawn)
Result string: 4.00^b)

Query string: Try this compound too: `C/C(Cl)=C/CNC(=O)c1cc(NC(=O)c2c(C(F)(F)F)c(C(F)(F)C(F)(F)F)nn2C)ccc1Cl`
Result string: 3.73^b)

Query string: Try this compound too: CCC(NC(=O)c1cc(NC(=O)c2c(C(F)(F)F)c(C(F)(F)C(F)(F)F)nn2C)ccc1Cl)C(F)(F)F (stereo not drawn)
Result string: 3.89^b)

Query string: Try this compound too: `Cn1nc(C(F)(F)C(F)(F)F)c(C(F)(F)F)c1C(=O)Nc1ccc(Cl)c(C(=O)NC2CC=CC2)c1`
Result string: 3.63^b)

###

EXPERIMENT_SUMMARY: physchem
Type: physicochemical
CONDITION_DESCRIPTION: logP
PROPERTY_MEASURED: chromatographic logP
Answer with a number only.

Query string: Which chromatographic logP value belongs to `Cn1nc(C(F)(F)OC(F)(F)OC(F)(F)F)cc1C(=O)O` ?
Result string: 3.38

###

EXPERIMENT_SUMMARY: logP by HPLC on a C18 phase inversion column, EEC Directive 79/831 Annex V.A8, method a) (Agilent 1100, 10-95% acetonitrile in 4.25 min)
Type: physicochemical
CONDITION_DESCRIPTION: HPLC phase inversion (reversed-phase) C18 column, HPLC method a), eluent acetonitrile/water with formic acid; read-out: logP
Procedure: ^a) Note regarding the determination of the log P values and mass detection: The log P values given were determined in accordance with EEC Directive 79/831 Annex V.A8 by HPLC (High Performance Liquid Chromatography) on a phase inversion column (C18). […]
PROPERTY_MEASURED: chromatographic logP

Cn1nc(OC(F)F)c(C(F)(F)F)c1C(=O)Nc1ccc(Cl)c(C(=O)NCC(F)(F)F)c1 [Ik-126]    3.01
COC(=O)c1[nH]nc(C(F)(F)C(F)(F)F)c1C(F)(F)F    3.02
O=C(NC1CC1)c1cc(NC(=O)c2cnc(OCC(F)(F)F)cc2C(F)(F)F)ccc1Cl [Ij-1]    3.02
O=C(NC1CC1)c1cc(NC(=O)c2cnc(C(F)(F)C(F)(F)F)nc2C(F)F)ccc1Cl [Ib-27]    2.92

###

EXPERIMENT_SUMMARY: log P from HPLC-MS, no method note printed
Assay type: physicochemical
CONDITION_DESCRIPTION: method not given
PROPERTY_MEASURED: chromatographic logP

CCOC(=O)c1sc(C(F)(F)C(F)(F)F)nc1C(F)(F)F    4.36

a: CCOC(=O)c1cnc(C(F)(F)C(F)(F)F)nc1C(F)(F)C(F)(F)F
b: Cn1nc(C(F)F)c(C(F)(F)F)c1C(=O)O
c: COC(=O)c1c(Cl)c(OC(F)F)nn1C
Query string: Order field: chromatographic logP | Direction: descending (largest first) Sort the labels as requested; that list is your answer.
Result string: a, c, b
(a: 4.41, c: 2.57, b: 1.1)

###

logP overview
EXPERIMENT_SUMMARY: logP by HPLC on a C18 phase inversion column, EEC Directive 79/831 Annex V.A8, method b) (HP1100, 5-95% acetonitrile in 1.70 min)
Type: physicochemical
CONDITION_DESCRIPTION: HPLC method b)

Here is how some compounds turned out for logP.
Cc1cccc(CNC(=O)c2cc(NC(=O)c3c(C(F)(F)F)c(C(F)(F)C(F)(F)F)nn3C)ccc2Cl)c1    3.94^b)
Cc1csc(C(NC(=O)c2cc(NC(=O)c3c(C(F)(F)F)c(C(F)(F)C(F)(F)F)nn3C)ccc2Cl)C(F)(F)F)n1 (stereo not shown)    4.00^b)
Cn1nc(C(F)(F)C(F)(F)F)c(C(F)(F)F)c1C(=O)Nc1ccc(Cl)c(C(=O)NCc2ccc(F)cc2)c1    3.73^b)
Cn1nc(C(F)(F)C(F)(F)F)c(C(F)(F)F)c1C(=O)Nc1ccc(Cl)c(C(=O)NCC2CC2(C)C)c1 (stereo not shown)    4.11^b)
Cn1nc(C(F)(F)C(F)(F)F)c(C(F)(F)F)c1C(=O)Nc1ccc(Cl)c(C(=O)NCC(F)(F)C(F)(F)F)c1    3.78^b)

Query string: Which logP value belongs to COCC(C)(C#N)NC(=O)c1cc(NC(=O)c2c(C(F)(F)F)c(C(F)(F)C(F)(F)F)nn2C)ccc1Cl (stereo not shown) ?
Result string: 3.37^b)

Query string: Try this compound too: `CC(C)[C@H](NC(=O)c1cc(NC(=O)c2c(C(F)(F)F)c(C(F)(F)C(F)(F)F)nn2C)ccc1Cl)C(F)(F)F`
Result string: 3.89^b)
